biological target: Autotaxin (ENPP2, NPP2) (Homo sapiens, UniProt Q13822 Q13822:36-863); test: inhibition
assayReadout: log10 of IC50 (log10 of the value in nM)
For clarity, the numbers are log10 values of IC50 expressed in nM.

Reference set, count: 2
binder: UCUGAGGGAAACAGGUUUUGCUCCUCGGA (mixed, as 16(47) with PS at A10 and 2'-OMe C2 U3) [SEQ 16(55)]
log10 of IC50: -0.40

binder: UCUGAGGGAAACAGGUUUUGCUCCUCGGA (ssRNA, as 16(4) with PS at A10) [SEQ 16(7)]
log10 of IC50: 0.86

Inquiry: I have this binder here, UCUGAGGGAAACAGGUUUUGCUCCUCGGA (mixed, as 16(21) with dC26) [SEQ 16(26)] , and I need its recorded log10 of IC50.
Reply text: 0.32

Inquiry: Give its log10 of IC50 value. Item: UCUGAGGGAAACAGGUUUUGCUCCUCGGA (mixed, as 16(21) with dC2) [SEQ 16(41)]
Reply text: 0.34

Inquiry: Which log10 of IC50 value is on record for ACUGCUUGAAACAGGUUUUGCUGAGCAGU (ssRNA, 2'-F pyrimidines, 2'-OH purines) [SEQ 24] ?
Reply text: 1.52

Inquiry: Form field: reported log10 of IC50 of UAGAGAUGGAAACAGGUUUUGCUCAUCUCA (ssRNA, 2'-F pyrimidines, 2'-OH purines) [SEQ 50]
Reply text: 1.32

Inquiry: So what's the measured log10 of IC50 for this one? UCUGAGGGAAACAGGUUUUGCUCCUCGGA (ssRNA, 2'-F pyrimidines, 2'-OH purines) [SEQ 16]
Reply text: 1.08

Inquiry: Any idea what log10 of IC50 was measured for UUUGAAGGAAACAGGUUUUGCUCUUCGAG (ssRNA, 2'-F pyrimidines, 2'-OH purines) [SEQ 51] ?
Reply text: 1.93

Inquiry: # lookup: log10 of IC50 of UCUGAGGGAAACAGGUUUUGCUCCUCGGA (mixed, as 16(4) with dT1 dC2 dT3) [SEQ 16(10)]
Reply text: 1.32

Inquiry: Find the recorded log10 of IC50 belonging to UCUGAGGGAAACAGGUUUUGCUCCUCGAA (ssRNA, 2'-F pyrimidines, 2'-OH purines) [SEQ 45] and report it.
Reply text: 1.46

Inquiry: For the binder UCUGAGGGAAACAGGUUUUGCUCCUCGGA (mixed, as 16(49) with 2'-OMe C2 U3 U22 C24 U25) [SEQ 16(65)] , what log10 of IC50 is on record?
Reply text: -0.52

Inquiry: Look at this binder and give its reported log10 of IC50. UCCGAGGGAAACAGGUUUUGCUCCUCGCA (ssRNA, 2'-F pyrimidines, 2'-OH purines) [SEQ 47]
Reply text: 1.82

Inquiry: Which log10 of IC50 reading was recorded for the binder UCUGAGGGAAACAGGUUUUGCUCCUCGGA (mixed, as 16(4) with dG14) [SEQ 16(5)] ?
Reply text: 0.83

Inquiry: Please look up its log10 of IC50: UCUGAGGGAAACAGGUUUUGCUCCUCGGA (mixed, as 16(22) with ssH linker instead of 5' idT) [SEQ 16(31)]
Reply text: -0.10

Inquiry: Quick one: log10 of IC50 for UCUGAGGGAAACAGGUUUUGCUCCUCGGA (mixed, as 16(4) with dC12) [SEQ 16(20)] ?
Reply text: 1.64

Inquiry: Give the measured log10 of IC50 of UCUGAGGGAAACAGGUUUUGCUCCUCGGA (mixed, as 16(4) with dT18) [SEQ 16(17)] .
Reply text: 1.66

Inquiry: For the binder shown here, GAGGGAAACAGGUUUUGCUCCUC (ssRNA, 2'-F pyrimidines, 2'-OH purines) [SEQ 20] , give the reported log10 of IC50.
Reply text: 2.00

Inquiry: Would you mind telling me what log10 of IC50 value was observed for UCUGAGGGAGACAGGUUUUGCUCCUCGGA (ssRNA, 2'-F pyrimidines, 2'-OH purines) [SEQ 34] ?
Reply text: 2.53

Inquiry: So what does the record say about log10 of IC50 for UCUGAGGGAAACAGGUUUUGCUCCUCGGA (mixed, as 16(4) with dG14 dG15) [SEQ 16(6)] ?
Reply text: 0.77

Inquiry: Find the recorded log10 of IC50 belonging to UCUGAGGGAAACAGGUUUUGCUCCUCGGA (mixed, as 16(33) with 5' 40 kDa PEG (GL2-400GS2)-ssH linker instead of 5' idT) [SEQ 16(35)] and report it.
Reply text: 0.48
